Known glycan array binding signal (z-score) of a selection of binders
biological target: Neu5Ac(a2-3)Gal(b1-4)GlcNAc6S; experiment: glycan array binding signal (z-score within array); higher = stronger binding; conditions: glycan notation: IUPAC condensed, linker removed
This is one part of a sample in which the strongest signals are shown more often than they occur.
MEASURE NAME: glycan array binding signal (z-score)

{"BINDER": "ACA (Amaranthus caudatus) (protein) MAGLPVIMCLKSNNNQKYLRYQSDNIQQYGLLQFSADKILDPLAQFEVEPSKTYDGLVHIKSRYTNKYLVRWSPNHYWITASANEPDENKSNWACTLFKPLYVEEGNMKKVRLLHVQLGHYTQNYTVGGSFVSYLFAESSQIDTGSKDVFHVIDWKSIFQFPKRYVTFKGNNGKYLGVITINQLPCLQFGYDNLNDPKVAHEMFVTSNGTICIKSTYMNKFWRLSTDDWILVDGNDPRETNEAAALFRSDVHDFNVISLLNMQKTWFIKRFTSGKPGFINCMNAATQNVDETAILEIIELGSNN", "REPORTED RESULT": -0.219}
{"BINDER": "Cohesin-hDCIR (Homo sapiens) (protein) LDDLDAVRIKVDTVNAKPGDTVRIPVRFSGIPSKGIANCDFVYSYDPNVLEIIEIEPGDIIVDPNPDKSFDTAVYPDRKIIVFLFAEDSGTGAYAITKDGVFATIVAKVKEGAPNGLSVIKFVEVGGFANNDLVEQKTQFFDGGANVGDTTEPATPTTPVTTPTTTDDLDAASQKYSQLLEKKTTKELVHTTLECVKKNMPVEETAWSCCPKNWKSFSSNCYFISTESASWQDSEKDCARMEAHLLVINTQEEQDFIFQNLQEESAYFVGLSDPEGQRHWQWVDQTPYNESSTFWHPREPSDPNERCVVLNFRKSPKRWGWNDVNCLGPQRSVCEMMKIHLHHHHHH", "REPORTED RESULT": -0.518}
{"BINDER": "MAL-II (Maackia amurensis), P93248 (protein) ATSNSKPTQVLLATFLTFFFLLLNNVNSSDELSFTINNFVPNEADLLFQGEASVSSTGVLQLTRVENGQPQQYSVGRALYAAPVRIWDNTTGSVASFSTSFTFVVKAPNPTITSDGLAFFLAPPDSQIPSGRVSKYLGLFNNSNSDSSNQIVAVEFDTYFGHSYDPWDPNYRHIGIDVNGIESIKTVQWDWINGGVAFATITYLAPNKTLIASLVYPSNQTSFIVAASVDLKEILPEWVRVGFSAATGYPTQVETHDVLSWSFTSTLEANSDAATENNVHIARYTA", "REPORTED RESULT": -0.215}
